The reported measurements were obtained from the supplement of paper PMC9170038.

Listing of recorded apparent KD of MS2 coat protein by entry.
tested on: MS2 coat protein; assay: apparent KD of MS2 coat protein; designed switch direction (-1 OFF switch, 1 ON switch): -1; higher = weaker reporter binding; conditions: input ligand: none
MEASUREMENT TYPE: apparent KD of MS2 coat protein

INSERT INTO measurements (chain_sequence, observed_measurement) VALUES
  ('CUGCUCCGUGUAGGAUAUGCAUACUCCCAUUAUGCAGAAGGACAUGAGGAUCACCCAUGUAUGUUAUUAUCAUGUGUUGCGUAC [Design 13] (Eterna round: R96, puzzle: Exclusion NG 1)', '38.5 nM'),
  ('GGCACACAUGAGGAUCACCCAUGUGAGGAUAUGAGGCGAUCGUCGAAAGACGAUAGCCUCAGAAGGCACAUGCC [Eli x1 4.10] (Eterna round: R97, puzzle: Exclusion 1)', '16 nM'),
  ('GUGGGUUAUGUCAGGAUAUGGCCGUUAGGGCGACGCCAGAAGGGACAUGAGGAUCACCCAUGUCUCCGGGCAUC [BmEX4 C.10] (Eterna round: R97, puzzle: Brourd''s mod of Exclusion 4)', '14.8 nM'),
  ('CCAACGUGAGGAUAUGCAAUGCUAGCGGGAUCUUCUCUCCAACAUGAGGAUCACCCAUGUAGAAGGCGCUGUUG [Eternabot (L1) Solution 38] (Eterna round: R97, puzzle: Exclusion 2)', '97.1 nM'),
  ('CGGCAUGUCUGAGGAUAUCUGCACGAUUAGUGCAGAGAAGGCAGAACAUGAGGAUCACCCAUGUAGAUCAUUAACCGAUUAAUU [ENG1/7-A1] (Eterna round: R96, puzzle: Exclusion NG 1)', '194 nM');

###

system: MS2 coat protein; test: apparent KD of MS2 coat protein; higher = weaker reporter binding; settings: Eterna round: R107; input ligand: none
MEASUREMENT TYPE: apparent KD of MS2 coat protein (nM)

INSERT INTO assay_data (chain_sequence, target_or_test_system, unit_symbol, observed_measurement) VALUES
  ('GCUAGCCGAAAGGCUAGCAAGGCUACAGAAGGAGCGUGCGAAAGCACAGGUAGGUCGCUGAGCUUGAGGAUCACCCAAGUUGCCU [SSAA - Alter Amptam #1 V+V2]', 'MS2 coat protein', 'nM', 66.7),
  ('UCACAUGAGGAUCACCCAUGUACAGGCGAUACCAGCCGUACAUUGGGCCCUUGGCAGCGCACCGAGGACUUUUUAAGCAUCUCGG [Diatbeen]', 'MS2 coat protein', 'nM', 19.8),
  ('GGCCAAAAGGCGGCCGCCACUCAAGAGUAGCAUGGAAAGACAUGAGGAUCACCCAUGUAAAGAAAGAGGACCGGGCCAAAAGGCC', 'MS2 coat protein', 'nM', 117),
  ('AAAUAAAUAACUGAUACCAGUGGACUGACAUGAGGAUCACCCAUGUUGGGUUUUGUUGUCCACCCUUGGCAGCAGGGAUAUAAAA [#24 Exclusion-TheophyllineB]', 'MS2 coat protein', 'nM', 38.5),
  ('ACACAUGAGGAUCACCCAUGUAAAGUUGAAGGAGCGAUCAUUAGGUCAGGUAGGUCGCAGCACAUGAGGAUCACCCAUGUCGUGA [DOUBLE!!! :-D #2]', 'MS2 coat protein', 'nM', 96.1),
  ('GUUGAGACCUCGGCCGCCACUCGCCAUGAGGAUCUCCCAUGUAACAUGAGGAUCACCCAUGUACUGAGGACCGGGAGGUCCUAGU [Same State Tryptophan B GF 15]', 'MS2 coat protein', 'nM', 17.4),
  ('UAUAUAUAAACAUGAGGAUCACCCAUGUAACGAGGACCGGUACGGCCGCCACUCGGCCGGCAAGGGAGAGGACGGGAAACCGUCG [ETA NP+V+V2 #27]', 'MS2 coat protein', 'nM', 13.4),
  ('AAUAAAUCGCCUGAUACCAGCGCUGGCGGACAUGAGGAUCACCCAUGUGUUACAGGCGGACGCCCUUGGCAGCGGAGCGGGAUCU [U-Shape]', 'MS2 coat protein', 'nM', 20.2),
  ('AACAUGAGGAUCACCCAUGUGUCCUCGAAACGAGGACCGGUACGGCCGCCACUCGAGCUAUGUUGACGAAAAGUCAGCAUAGCAA [Mat - Exclusion - Trytophan A - D13]', 'MS2 coat protein', 'nM', 276),
  ('CCGUUUUAUGGCGACAUAGGGCGGACUGAAGGAGCGGUAUAAAAGCCAGGUAGGUCGCAGAGAUCCACAUGAGGAUCACCCAUGU [!0.aA]', 'MS2 coat protein', 'nM', 39.7),
  ('GGAUAGGACACGGCCGCCACUAGCUAGGAUACUAGCAACAUUUCCUCGCUUGAGGAUCACCCAAGUAGGACCGGGUGUCCUAUCG', 'MS2 coat protein', 'nM', 560),
  ('UCGCUCUGGGUGAGAUCCGGAGAUAUGGAAGGAGCGCUGAUGCCAGCAGGUAGGUCGCCAACGGACAUGAGGAUCACCCAUGUAC [Same State - Arginine A (Freestyle 10)]', 'MS2 coat protein', 'nM', 52.4);

###

test system: MS2 coat protein; assay: apparent KD of MS2 coat protein; designed switch direction (-1 OFF switch, 1 ON switch): -1; higher = weaker reporter binding; settings: input ligand: FMN 200 uM
Listing of recorded apparent KD of MS2 coat protein by entry.
MEASUREMENT TYPE: apparent KD of MS2 coat protein

INSERT INTO measurements (chain_sequence, target_or_test_system, measurement_type, observed_measurement) VALUES
  ('GCAGCAUAGUUUACUAACUGUUACAUGAGGAUCACCCAUGUCUAGGAUAUGGUCUGGAUUACAGGCCAGAAGGAGGCAAGCUGC [Eli exng3 - 035] (Eterna round: R96, puzzle: Exclusion NG 3)', 'MS2 coat protein', 'apparent KD of MS2 coat protein', '0.0118 µM'),
  ('GAUCAGAUAGGAUAUACAGGCCCGUCUUUAUAUUGAUCCCGACAUGAGGAUCACCCAUGUAGAAGGAUCAGAUC [Mod 28 - Jieux - Exclusion 2] (Eterna round: R97, puzzle: Exclusion 2)', 'MS2 coat protein', 'apparent KD of MS2 coat protein', '0.0233 µM'),
  ('AUUAAAGACCGAGGAUAUCGAGGAAAUACACUGCGAGAAGGCGGGUACUCGGACGAUUCGACAUGAGGAUCACCCAUGUGCACA [Tixequ] (Eterna round: R96, puzzle: Exclusion NG 1)', 'MS2 coat protein', 'apparent KD of MS2 coat protein', '0.0267 µM'),
  ('GUGAUCUAUCAUGUAAUCAACAUGAGGAUCACCCAUGUAGACAAGUUUUUUGCUCGUCUGAUAAUAAGAUAGAUCAC [Antenna 16 - Jieux - Sensor, turn-off variant 1] (Eterna round: R97, puzzle: Sensor, turn-off variant 1)', 'MS2 coat protein', 'apparent KD of MS2 coat protein', '0.0138 µM'),
  ('AUAAUACAUGAGGAUCACCCAUGUGAGGAUAUGAGCCUACAUUCACGCAGAGAGAAGGUCAGAAGGCACUUGGU [Eternabot (L2) Solution 65] (Eterna round: R97, puzzle: Exclusion 1)', 'MS2 coat protein', 'apparent KD of MS2 coat protein', '0.211 µM'),
  ('GGAUAGUGAGGAUAUACCCAGAUUGAUGGACACGUCAGCGGGUAGAAGGCACAUGAGGAUCACCCAUGUGGCCU [Eternabot (L1) Solution 22] (Eterna round: R97, puzzle: Exclusion 4)', 'MS2 coat protein', 'apparent KD of MS2 coat protein', '0.0184 µM'),
  ('UGAUCUAGCGGAGGAUAUACAUGAGGAUCACCCAUGUAGUUGUCUGUACCGUAGUGCAGACUUGUGUAGAAGGCCGCUAGAUCU [JL ENG2 3.62] (Eterna round: R96, puzzle: Exclusion NG 2)', 'MS2 coat protein', 'apparent KD of MS2 coat protein', '0.0259 µM'),
  ('CGAUGCUCGUGUCCACAUGAGGAUCACCCAUGUCGAGUUAGCGAGGAUAUCGGUGACACAUAGUACGAGAAGGCGCGAACCUGA [Ex NG3 #26] (Eterna round: R96, puzzle: Exclusion NG 3)', 'MS2 coat protein', 'apparent KD of MS2 coat protein', '0.0543 µM'),
  ('AUAAUGUGAGGAUAUCAGUAGUAUUGCCUCGGCAAUACUACUGAGAAGGCACAUGAGGAUCACCCAUGUGAUCA [E4/2-B2] (Eterna round: R97, puzzle: Exclusion 4)', 'MS2 coat protein', 'apparent KD of MS2 coat protein', '0.0293 µM'),
  ('GGUCAUAGGUAAGGAUAUGAAGAUCUGGUGGUGACAUGAGGAUCACCCAUGUGAAAACGAUGAGAUCAGAAGGUACAAUAUGAA [AK ExNG2-4.1] (Eterna round: R96, puzzle: Exclusion NG 2)', 'MS2 coat protein', 'apparent KD of MS2 coat protein', '0.0727 µM'),
  ('UUUUGAAAGUGAGGAUAUGACAUGAGGAUCACCCAUGUAAAGGGAGUUGACUAUAUAGCAAGAUAUCAGAAGGCACAAAUGUUU [JR_ExcNG2_Sub003] (Eterna round: R96, puzzle: Exclusion NG 2)', 'MS2 coat protein', 'apparent KD of MS2 coat protein', '0.367 µM'),
  ('UAUUAGCAAGCAAAUGGGUACAUGAGGAUCACCCAUGUGCUCGUCUUAUAAGGUACUGUGACGACAGUCACGGUACC [mod--Eli4] (Eterna round: R97, puzzle: Sensor, turn-off variant 1)', 'MS2 coat protein', 'apparent KD of MS2 coat protein', '0.0245 µM'),
  ('GCUAGGAGUGUGAGGAUAUGCUGUUCCUUGGAACAGCAGAAGGCACAUGAGGAUCACCCAUGUGAAGACCUAGC [Mat - Exclusion 4 - JL Mod - D3] (Eterna round: R97, puzzle: Brourd''s mod of Exclusion 4)', 'MS2 coat protein', 'apparent KD of MS2 coat protein', '0.149 µM'),
  ('AAAUAGCUUGAGGAUAUUGGACUGGAUUCAGUGCGAGAAGGCAAGACAUGAGGAUCACCCAUGUUGUGUUGGGA [EX6 #10] (Eterna round: R97, puzzle: Exclusion 6)', 'MS2 coat protein', 'apparent KD of MS2 coat protein', '0.18 µM'),
  ('GCCGUAAAUGUGAGGAUAUACCUAUGGAUACAUAGGUAGAAGGCACAUGAGGAUCACCCAUGUUCUUAAUCGGC [Eli BMX r4m2] (Eterna round: R97, puzzle: Brourd''s mod of Exclusion 4)', 'MS2 coat protein', 'apparent KD of MS2 coat protein', '0.567 µM'),
  ('CCUCUACAUGAGGAUCACCCAUGUGAGGAUAUCAAAGUCAGGGCGGCGCCCUGACUCAUGAGAAGGUGCAUGAA [EX1 A.16] (Eterna round: R97, puzzle: Exclusion 1)', 'MS2 coat protein', 'apparent KD of MS2 coat protein', '0.0318 µM'),
  ('ACGGACCGAGGAUAUGCAUGCAGGAUACCUGGGUCCAAUGGACAUGAGGAUCACCCAUGUAGAAGGCGGAAAUA [Arinisra] (Eterna round: R97, puzzle: Exclusion 2)', 'MS2 coat protein', 'apparent KD of MS2 coat protein', '0.0863 µM'),
  ('CACCUGAAGAGAGGAUAUGAUACAUGAGGAUCACCCAUGUAAUAAAUGAGAAUUUCGAAUGUAAUUCAGAAGGCUCAAUAAGGC [Ostricism 94 - Jieux - Exclusion NG 2] (Eterna round: R96, puzzle: Exclusion NG 2)', 'MS2 coat protein', 'apparent KD of MS2 coat protein', '0.107 µM');
